- Tested on: 967376-340-R-J2-PDC multicell spheroid viability;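 also: luminescence used as surrogate of cell viability; spheroids exposed to agents for 7 days before read-out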
- assay_remarks: Anticancer human tumor 967376-340-R-J2-PDC patient-derived colon adenocarcinoma cell line growth inhibition [PI3K]
- setup_conditions: second compound 0.1 µM; first compound 1 µM; hits give low values
- Source text: Combinatorial screen of targeted agents with the PI3K inhibitors inavolisib, alpelisib, duvelisib, and copanlisib in multi-cell type tumor spheroids A high-throughput screen of multi-cell type tumor spheroids was designed to identify active combinations of targeted small molecules and PI3K pathway inhibitors. […] Compounds. […] If the clinical Cmax for an agent had not been determined, the highest concentration tested was 10 microM. […]
Mark true for viability, T/C under 80%, false if at or over.

Does the reported viability, T/C of CC1(C)CCC(Nc2ncc(C(F)(F)F)c(-c3c[nH]c4c(P(C)(C)=O)c(C#N)ccc34)n2)CN1 (stereo unspecified) + Cc1nc(NC(=O)N2CCCC2C(N)=O)sc1-c1ccnc(C(C)(C)C(F)(F)F)c1 stay below 80%?
true

Same thing, different compound: Cn1nccc1Nc1nccc(-c2ccn(C(CO)c3ccc(Cl)c(F)c3)c(=O)c2)n1 (stereo unspecified) + Cc1nc(NC(=O)N2CCCC2C(N)=O)sc1-c1ccnc(C(C)(C)C(F)(F)F)c1
true

Same thing, different compound: CC1(C)CCC(CN2CCN(c3ccc(C(=O)NS(=O)(=O)c4ccc(NCC5CCOCC5)c([N+](=O)[O-])c4)c(Oc4cnc5[nH]ccc5c4)c3)CC2)=C(c2ccc(Cl)cc2)C1 + CC(Nc1ccc2c(c1)OCCn1cc(N3C(=O)OCC3C(F)F)nc1-2)C(N)=O
false

Same thing, different compound: CNC(=O)c1ccc(N2C(=S)N(c3ccc(C#N)c(C(F)(F)F)c3)C(=O)C2(C)C)cc1F + COc1c(OCCCN2CCOCC2)ccc2c3n(c(=NC(=O)c4cnc(N)nc4)nc12)CCN3
true

Same thing, different compound: Cn1nccc1Nc1nccc(-c2ccn(C(CO)c3ccc(Cl)c(F)c3)c(=O)c2)n1 (stereo unspecified) + COc1c(OCCCN2CCOCC2)ccc2c3n(c(=NC(=O)c4cnc(N)nc4)nc12)CCN3
false

Same thing, different compound: C#Cc1c(F)ccc2cc(O)cc(-c3ncc4c(N5CC6CCC(C5)N6)nc(OCC56CCCN5CC(F)C6)nc4c3F)c12 (stereo unspecified) + Cc1nc(NC(=O)N2CCCC2C(N)=O)sc1-c1ccnc(C(C)(C)C(F)(F)F)c1
true

Same thing, different compound: C#Cc1c(F)ccc2cc(O)cc(-c3ncc4c(N5CC6CCC(C5)N6)nc(OCC56CCCN5CC(F)C6)nc4c3F)c12 (stereo unspecified) + COc1c(OCCCN2CCOCC2)ccc2c3n(c(=NC(=O)c4cnc(N)nc4)nc12)CCN3
true

Same thing, different compound: Cn1ncc(Cl)c1-c1cc(C(=O)NC(CN)Cc2cccc(F)c2)sc1Cl (stereo unspecified) + CC(Nc1ccc2c(c1)OCCn1cc(N3C(=O)OCC3C(F)F)nc1-2)C(N)=O
true

Same thing, different compound: CC1(C)CCC(Nc2ncc(C(F)(F)F)c(-c3c[nH]c4c(P(C)(C)=O)c(C#N)ccc34)n2)CN1 (stereo unspecified) + CC(Nc1ccc2c(c1)OCCn1cc(N3C(=O)OCC3C(F)F)nc1-2)C(N)=O
true

Same thing, different compound: CCCS(=O)(=O)Nc1ccc(F)c(C(=O)c2c[nH]c3ncc(-c4ccc(Cl)cc4)cc23)c1F + CC(Nc1ncnc2nc[nH]c12)c1cc2cccc(Cl)c2c(=O)n1-c1ccccc1
false

Same thing, different compound: CNC(=O)c1ccc(N2C(=S)N(c3ccc(C#N)c(C(F)(F)F)c3)C(=O)C2(C)C)cc1F + CC(Nc1ncnc2nc[nH]c12)c1cc2cccc(Cl)c2c(=O)n1-c1ccccc1
false

Same thing, different compound: Cn1ncc(Cl)c1-c1cc(C(=O)NC(CN)Cc2cccc(F)c2)sc1Cl (stereo unspecified) + CC(Nc1ncnc2nc[nH]c12)c1cc2cccc(Cl)c2c(=O)n1-c1ccccc1
false

Same thing, different compound: C=CC(=O)N1CCN(c2nc(=O)n(-c3c(C)ccnc3C(C)C)c3nc(-c4c(O)cccc4F)c(F)cc23)C(C)C1 (stereo unspecified) + CC(Nc1ncnc2nc[nH]c12)c1cc2cccc(Cl)c2c(=O)n1-c1ccccc1
false

Same thing, different compound: CC(C)NCC(C(=O)N1CCN(c2ncnc3c2C(C)CC3O)CC1)c1ccc(Cl)cc1 (stereo unspecified) + CC(Nc1ccc2c(c1)OCCn1cc(N3C(=O)OCC3C(F)F)nc1-2)C(N)=O
true

Same thing, different compound: CC(Cn1ccc(-c2ccc(C#N)c(Cl)c2)n1)NC(=O)c1cc(C(C)O)[nH]n1 (stereo unspecified) + CC(Nc1ncnc2nc[nH]c12)c1cc2cccc(Cl)c2c(=O)n1-c1ccccc1
false

Same thing, different compound: CCN1CCN(Cc2ccc(Nc3ncc(F)c(-c4cc(F)c5nc(C)n(C(C)C)c5c4)n3)nc2)CC1 + Cc1nc(NC(=O)N2CCCC2C(N)=O)sc1-c1ccnc(C(C)(C)C(F)(F)F)c1
true

Same thing, different compound: CC1(C)CCC(CN2CCN(c3ccc(C(=O)NS(=O)(=O)c4ccc(NCC5CCOCC5)c([N+](=O)[O-])c4)c(Oc4cnc5[nH]ccc5c4)c3)CC2)=C(c2ccc(Cl)cc2)C1 + Cc1nc(NC(=O)N2CCCC2C(N)=O)sc1-c1ccnc(C(C)(C)C(F)(F)F)c1
false

Same thing, different compound: C#Cc1c(F)ccc2cc(O)cc(-c3ncc4c(N5CC6CCC(C5)N6)nc(OCC56CCCN5CC(F)C6)nc4c3F)c12 (stereo unspecified) + CC(Nc1ccc2c(c1)OCCn1cc(N3C(=O)OCC3C(F)F)nc1-2)C(N)=O
true

Same thing, different compound: CC(C)NCC(C(=O)N1CCN(c2ncnc3c2C(C)CC3O)CC1)c1ccc(Cl)cc1 (stereo unspecified) + Cc1nc(NC(=O)N2CCCC2C(N)=O)sc1-c1ccnc(C(C)(C)C(F)(F)F)c1
true

Same thing, different compound: Cn1ncc(Cl)c1-c1cc(C(=O)NC(CN)Cc2cccc(F)c2)sc1Cl (stereo unspecified) + Cc1nc(NC(=O)N2CCCC2C(N)=O)sc1-c1ccnc(C(C)(C)C(F)(F)F)c1
false
